Organism: Rattus norvegicus
Assay: Open TG-GATES - Regimen: Daily Repeat
Format: toxicity, organism-based, Sprague-Dawley
Set-up: regimen Daily Repeat, gender Male, age 6 weeks
Conditions: in vivo, po, 0 mg/kg, […], tissue Plasma, route gavage, dose level Control, time 14 day
Recorded measurements of PL, one per entry
Use mg/dL as the unit, but write only the number.

# Compound, Result units, Measured value
measured = [
    ("CCOc1ccc(NC(=O)CC(C)O)cc1 (centres undefined)", "mg/dL", 170.2),
    ("CN(C)CCN(Cc1cccs1)c1ccccn1", "mg/dL", 138),
    ("CC(C)OC(=O)C(C)(C)Oc1ccc(C(=O)c2ccc(Cl)cc2)cc1 [FENOFIBRATE]", "mg/dL", 144.8),
]

Briefly, PL measured for COc1ccc2[nH]c([S+]([O-])Cc3ncc(C)c(OC)c3C)nc2c1 (centres undefined) : 139.6

Data credit: ChEMBL document CHEMBL3885861
